Origin of values: patent US20220168427A1

- TARGET_DESC: BRD4 (BD1+BD2) (Homo sapiens, UniProt O60885)
- Construct: 1.8 μg/ml recombinant BRD4 (BD1+BD2 domains) protein
- DETAILS: read-out: BRD4 Binding Potency
PROPERTY_NAME: IC50

// worked examples, IC50 included
>>> test_result("Cc1sc2c(c1C)C(c1ccc(Cl)cc1)=N[C@@H](CC(=O)NCCOCCOCCN[C@@H](C)C(=O)N[C@H](C(=O)N1CCC[C@H]1C(=O)Nc1snnc1-c1ccccc1)C1CCCCC1)c1nnc(C)n1-2")
"> 1 µM"
>>> test_result("Cc1sc2c(c1C)C(c1ccc(Cl)cc1)=N[C@@H](CC(=O)NCc1ccc(-n3c(S)nnc3-c3cc(C(C)C)c(O)cc3O)cc1)c1nnc(C)n1-2")
"0.1 to 1 µM"
>>> test_result("Cc1sc2c(c1C)C(c1ccc(Cl)cc1)=N[C@@H](CC(=O)N1CCC(CN3CCN(c4ccc(-n5c(O)nnc5-c5cc(C(C)C)c(O)cc5O)cc4)CC3)CC1)c1nnc(C)n1-2")
"0.1 to 1 µM"

Query :: Record request: IC50 value, item Cc1sc2c(c1C)C(c1ccc(Cl)cc1)=N[C@@H](CC(=O)N1CCC(CN3CCN(Cc4ccc(-n5c(C(=O)NC(C)C)nnc5-c5ccc(O)cc5O)cc4)CC3)CC1)c1nnc(C)n1-2
Result :: < 0.1 µM

Query :: Record request: IC50 value, item COc1cccc(-c2cc(C(=O)Nc3ccc(-c4ccc(OC5CCN(CC[C@@H]6N=C(c7ccc(Cl)cc7)c7c(sc(C)c7C)-n7c(C)nnc76)CC5)cc4O)cc3)ccc2OC)c1
Result :: > 1 µM

---

- Test system: MV4-11 cells
- TEST_SUMMARY: MV4-11 Cell Cytotoxicity Assay
- Type: cell-based, human
- DETAILS: human, MV4-11 cells, CCK-8
PROPERTY_NAME: IC50 at 72 h

// worked examples, IC50 at 72 h included
>>> test_result("Cc1sc2c(c1C)C(c1ccc(Cl)cc1)=N[C@@H](CC(=O)N[C@H](C)c1cccc(CN3CCC(Cc4ccc(-n5c(O)nnc5-c5cc(C(C)C)c(O)cc5O)cc4)CC3)c1)c1nnc(C)n1-2")
"< 100 nM"
>>> test_result("CCCc1cc(C(=O)N2Cc3ccc(CN4CCN(C(=O)C[C@@H]5N=C(c6ccc(Cl)cc6)c6c(sc(C)c6C)-n6c(C)nnc65)CC4)cc3C2)c(O)cc1O")
"> 1000 nM"
>>> test_result("Cc1sc2c(c1C)C(c1ccc(Cl)cc1)=N[C@@H](CC(=O)Nc1ccc(NC(=O)C3CCN(Cc4ccc(-n5c(O)nnc5-c5cc(C(C)C)c(O)cc5O)cc4)CC3)cc1)c1nnc(C)n1-2")
"< 100 nM"
>>> test_result("Cc1cc(-c2nnc(C(=O)NCCN3CCCCC3)n2-c2ccc(CN3CCN(CC4CCN(C(=O)C[C@@H]5N=C(c6ccc(Cl)cc6)c6c(sc(C)c6C)-n6c(C)nnc65)CC4)CC3)cc2)c(O)cc1O")
"< 100 nM"
>>> test_result("CCc1cc(-c2nnc(O)n2-c2ccc(CC3CCN(CC4CCN(C(=O)C[C@@H]5N=C(c6ccc(Cl)cc6)c6c(sc(C)c6C)-n6c(C)nnc65)CC4)CC3)cc2)c(O)cc1O")
"< 100 nM"

Query :: Record request: IC50 at 72 h value, item CCc1cc(-c2nnc(C(=O)NC(C)C)n2-c2ccc(CN3CCN(CC4CCN(C(=O)C[C@@H]5N=C(c6ccc(Cl)cc6)c6c(sc(C)c6C)-n6c(C)nnc65)CC4)CC3)cc2)c(O)cc1O
Result :: < 100 nM

Query :: Record request: IC50 at 72 h value, item COc1cccc(-c2cc(C(=O)Nc3ccc(-c4ccc(OC5CCN(C)CC5)cc4OCCN(C)C(=O)C[C@@H]4N=C(c5ccc(Cl)cc5)c5c(sc(C)c5C)-n5c(C)nnc54)cc3)ccc2OC)c1
Result :: 100 to 1000 nM

Query :: Record request: IC50 at 72 h value, item Cc1sc2c(c1C)C(c1ccc(Cl)cc1)=N[C@@H](CC(=O)N1CCC(CN3CCC(Cc4ccc(-n5c(O)nnc5-c5cc(C(C)C)c(O)cc5O)cc4)CC3)CC1)c1nnc(C)n1-2
Result :: < 100 nM

Query :: Record request: IC50 at 72 h value, item Cc1sc2c(c1C)C(c1ccc(Cl)cc1)=N[C@@H](CC(=O)NCc1ccc(CN3CCC(Cc4ccc(-n5c(C(=O)NCC(F)(F)F)nnc5-c5cc(C(C)C)c(O)cc5O)cc4)CC3)cc1)c1nnc(C)n1-2
Result :: < 100 nM
